System: 1b (con1) replicon cells
Protocol: HCV 1b replicon inhibitory activity (luciferase, Britelite Plus)
Assay type: cell-based, hepatitis C virus
Cond: Hepatitis C virus; geometric mean, 95% confidence intervals in parentheses; 48 hours; medium with 10% FCS; read-out: IC50 value (95% Confidence Intervals) pM Replicon 1B assay
Consider the cut-off 50 pM. If the recorded IC50 is strictly smaller, the label is rule met; if not, the label is rule not met.

test_smiles=COC(=O)N[C@H](C(=O)N1CCC[C@H]1c1ncc(-c2ccc(-c3ncc4cc(-c5cnc([C@@H]6CCCN6C(=O)[C@@H](NC(=O)OC)C(C)C)[nH]5)ccc4n3)nc2)[nH]1)C(C)C category_label="rule not met"
test_smiles=COC(=O)N[C@H](C(=O)N1CCC[C@H]1c1ncc(-c2ccc(-c3cnc4cc(-c5cnc([C@@H]6CCCN6C(=O)[C@@H](NC(=O)OC)C(C)C)[nH]5)cnc4n3)cc2)[nH]1)C(C)C category_label="rule not met"
test_smiles=COC(=O)N[C@H](C(=O)N1CCC[C@H]1c1nc(-c2ccc3cc(-c4ccc(-c5cnc([C@@H]6CCCN6C(=O)[C@@H](NC(=O)OC)C(C)C)[nH]5)cc4)ccc3n2)c[nH]1)C(C)C category_label="rule met"
test_smiles=COC(=O)N[C@H](C(=O)N1CCC[C@H]1c1nc(-c2ccc(-c3cnc4cc(-c5cnc([C@@H]6CCCN6C(=O)[C@@H](NC(=O)OC)C(C)C)[nH]5)cnc4c3)cc2)c[nH]1)C(C)C category_label="rule met"
test_smiles=COC(=O)N[C@H](C(=O)N1CCC[C@H]1c1ncc(-c2ccc(-c3ccc4cc(-c5cnc([C@@H]6CCCN6C(=O)[C@@H](NC(=O)OC)C(C)C)[nH]5)ncc4c3)cc2)[nH]1)C(C)C category_label="rule met"
test_smiles=COC(=O)N[C@H](C(=O)N1CCC[C@H]1c1nc(-c2ccc(-c3nc4ccc(-c5c[nH]c([C@@H]6CCCN6C(=O)[C@@H](NC(=O)OC)C(C)C)n5)cc4nc3O)cc2)c[nH]1)C(C)C category_label="rule met"
test_smiles=COC(=O)N[C@H](C(=O)N1CCC[C@H]1c1ncc(-c2ccc3cc(-c4cnc(-c5cnc([C@@H]6CCCN6C(=O)[C@@H](NC(=O)OC)C(C)C)[nH]5)cn4)ccc3c2)[nH]1)C(C)C category_label="rule not met"
test_smiles=COC(=O)N[C@H](C(=O)N1CCC[C@H]1c1ncc(-c2ccc(-c3cnc4cc(-c5cnc([C@@H]6CCCN6C(=O)[C@@H](NC(=O)OC)C(C)C)[nH]5)ccc4n3)nc2)[nH]1)C(C)C category_label="rule met"
test_smiles=COC(=O)N[C@H](C(=O)N1CCC[C@H]1c1ncc(-c2ccc(-c3ncc4cc(-c5cnc([C@@H]6CCCN6C(=O)[C@@H](NC(=O)OC)C(C)C)[nH]5)ccc4n3)cc2)[nH]1)C(C)C category_label="rule met"
